Data provenance is patent US20230021483A1.

So I've got a bunch of molecules here, and I need their Adar 1434268_at (Group G1, Modules 20) values.
System: preferentially upregulated genes in LV, SP, LN
Assay: Z-score-based differential gene expression analysis (adjuvant group- or adjuvant-associated genes, 40 module mapping, TargetMine annotation)
Assay type: in vivo, C57BL/6 mice
Conditions: ID, LV, sample x2
In your answer, state the number alone without any accompanying words.

Please report the recorded Adar 1434268_at (Group G1, Modules 20) for Nc1nc2c(ncn2[C@@H]2O[C@@H]3COP(=O)(O)O[C@H]4[C@@H](O)[C@H](n5cnc6c(=O)[nH]c(N)nc65)O[C@@H]4COP(=O)(O)O[C@H]3[C@H]2O)c(=O)[nH]1 [cdiGMP, Cyclic diguanylate monophosphate] .
1.83

Please report the recorded Adar 1434268_at (Group G1, Modules 20) for CCOCc1nc2c(N)nc3ccccc3c2n1CC(C)(C)O .
1.8

Please report the recorded Adar 1434268_at (Group G1, Modules 20) for Cc1ccc2c(=O)c3cccc(CC(=O)O)c3oc2c1C .
1.52

Please report the recorded Adar 1434268_at (Group G1, Modules 20) for Nc1nc2c(ncn2[C@@H]2O[C@@H]3COP(=O)(O)O[C@H]4[C@@H](O)[C@H](n5cnc6c(N)ncnc65)O[C@@H]4COP(=O)(O)O[C@@H]2[C@@H]3O)c(=O)[nH]1 [cGAMP, Cyclic [G(2′,5′)pA(3′,5′)p]] .
1.71
